Listing: Minimum Toxicity Concentration THP-1 of selected compounds
System: human leukaemia cells (THP-1)
Test: Resazurin cytotoxicity assay, THP-1
Details: human, 4 days
Record the value in µM, omitting the unit from your answer.

SMILES_TEXT | Minimum Toxicity Concentration THP-1, µM
O=[N+]([O-])c1cc2cccnc2c2ncccc12 | 0.1
Cc1ccnc2c1ccc1c(C)ccnc12 | 0.1

Record O=C1C(=O)c2cccnc2-c2ncccc21 . Reported Minimum Toxicity Concentration THP-1: 0.1

Record c1ccc(-c2ccnc3c2ccc2c(-c4ccccc4)ccnc23)cc1 . Reported Minimum Toxicity Concentration THP-1: 13

----------
Tested on: human hepatocellular carcinoma cells (Hep-G2)
Test: Resazurin cytotoxicity assay, HepG2
Conditions: human, 4 days
Listing: Minimum Toxicity Concentration HepG2 of selected compounds
Record the value in µM, omitting the unit from your answer.

human hepatocellular carcinoma cells (Hep-G2) Minimum Toxicity Concentration HepG2 of O=C1C(=O)c2cccnc2-c2ncccc21 [1,10-Phenanthroline-5,6-dione] is 0.1

human hepatocellular carcinoma cells (Hep-G2) Minimum Toxicity Concentration HepG2 of c1ccc2cnccc2c1 [Isoquinoline] is 3

human hepatocellular carcinoma cells (Hep-G2) Minimum Toxicity Concentration HepG2 of c1ccc2ncccc2c1 [Quinoline] is 3

human hepatocellular carcinoma cells (Hep-G2) Minimum Toxicity Concentration HepG2 of c1ccc(-c2ccnc3c2ccc2c(-c4ccccc4)ccnc23)cc1 [Bathophenanthroline] is 1.5

human hepatocellular carcinoma cells (Hep-G2) Minimum Toxicity Concentration HepG2 of Cc1ccnc2c1ccc1c(C)ccnc12 [4,7-Dimethyl-1,10-Phenanthrolin] is 0.1

human hepatocellular carcinoma cells (Hep-G2) Minimum Toxicity Concentration HepG2 of O=[N+]([O-])c1cc2cccnc2c2ncccc12 [5-Nitro-1,10-phenanthroline] is 0.1

human hepatocellular carcinoma cells (Hep-G2) Minimum Toxicity Concentration HepG2 of Cc1cc(-c2ccccc2)c2ccc3c(-c4ccccc4)cc(C)nc3c2n1 is 0.1

----------
Listing: Minimum Toxicity Concentration HepG2 of selected compounds
Tested on: human hepatocellular carcinoma cells (Hep-G2)
Experiment: Resazurin cytotoxicity assay, HepG2
Conditions: commercial compounds; unit from Table 8 head

Record CCCCN(CCCC)CCCC [Tributylamine] . Reported Minimum Toxicity Concentration HepG2: >100 µM

----------
Tested on: human leukaemia cells (THP-1)
Experiment: Resazurin cytotoxicity assay, THP-1
Conditions: commercial compounds; unit from Table 8 head
READOUT_NAME: Minimum Toxicity Concentration THP-1 (µM)
Record the value in µM, omitting the unit from your answer.

COMPOUND | OBSERVED
Cc1cnc2c(ccc3c(C)c(C)cnc32)c1C | 0.1
c1cnc2c(c1)ccc1cccnc12 | 0.1
c1ccc(-c2ccccn2)nc1 | 50
Cc1c(C)c2cccnc2c2ncccc12 | 0.1
CCCCCCCCN(CCCCCCCC)CCCCCCCC | 3.1

Next:
Record Cc1ccc2ccc3ccc(C)nc3c2n1 [Neocuproine hemihydrate] . Reported Minimum Toxicity Concentration THP-1: 12

----------
System: Human alveolar epithelial cells (A549)
Assay: Resazurin cytotoxicity assay, A549
Conditions: human, 4 days
READOUT_NAME: Minimum Toxicity Concentration A549 (µM)
Record the value in µM, omitting the unit from your answer.

SMILES_TEXT | Minimum Toxicity Concentration A549, µM
c1ccc2ncccc2c1 | 50

Next:
Record O=C1C(=O)c2cccnc2-c2ncccc21 . Reported Minimum Toxicity Concentration A549: 0.1

----------
System: methicillin-resistant Staphylococcus aureus (MRSA)
Assay: Resazurin bacterial inhibition assay (MIC), MRSA
Format: cell-based
Conditions: Staphylococcus aureus, MRSA; commercial compounds; 18 h, resazurin; read-out: Minimum Inhibitory Concentration MRSA
READOUT_NAME: log10 MIC (log10 of the value in µM)
Scale: decimal log of MIC, MIC in µM.

COMPOUND | OBSERVED
Cc1cnc2c(ccc3c(C)c(C)cnc32)c1C | -0.52
CCCCCCN(CCCCCC)CCCCCC | 0.48
CCCCCCCCN(CCCCCCCC)CCCCCCCC | 1.10
CCCCCCCCNCCCCCCCC | 0.79

methicillin-resistant Staphylococcus aureus (MRSA) log10 MIC of c1cnc2c(c1)ccc1ncccc12 is 1.40

methicillin-resistant Staphylococcus aureus (MRSA) log10 MIC of Cc1ccc2ccc3ccc(C)nc3c2n1 [Neocuproine hemihydrate] is -1.05

methicillin-resistant Staphylococcus aureus (MRSA) log10 MIC of O=C1C(=O)c2cccnc2-c2ncccc21 is -1.40

methicillin-resistant Staphylococcus aureus (MRSA) log10 MIC of O=[N+]([O-])c1cc2cccnc2c2ncccc12 is -1.05

methicillin-resistant Staphylococcus aureus (MRSA) log10 MIC of Cc1cc(-c2ccccc2)c2ccc3c(-c4ccccc4)cc(C)nc3c2n1 is 1.40

----------
Test system: human hepatocellular carcinoma cells (Hep-G2)
Assay: Resazurin cytotoxicity assay, HepG2
Conditions: commercial compounds; unit from Table 8 head
Listing: Minimum Toxicity Concentration HepG2 of selected compounds

Solved entries:
COMPOUND | EXPERIMENTAL_TARGET | Minimum Toxicity Concentration HepG2
C1CCC(NC2CCCCC2)CC1 [Dicyclohexylamine] | human hepatocellular carcinoma cells (Hep-G2) | >100 µM
Cc1cnc2c(ccc3c(C)c(C)cnc32)c1C [3,4,7,8-Tetramethyl-1,10-phenanthroline] | human hepatocellular carcinoma cells (Hep-G2) | 0.1 µM

Next:
Record CCCCCCCCN(CCCCCCCC)CCCCCCCC [Trioctylamine] . Reported Minimum Toxicity Concentration HepG2: >100 µM

----------
Listing: Minimum Toxicity Concentration HEK 293 of selected compounds
Test system: human embryonic kidney cells 293 (HEK293)
Assay: Resazurin cytotoxicity assay, HEK 293
Conditions: human, 4 days
Record the value in µM, omitting the unit from your answer.

SMILES_TEXT | EXPERIMENTAL_TARGET | READOUT_UNIT | OBSERVED
Cc1cc(-c2ccccc2)c2ccc3c(-c4ccccc4)cc(C)nc3c2n1 | human embryonic kidney cells 293 (HEK293) | µM | 0.1

Record O=[N+]([O-])c1cc2cccnc2c2ncccc12 . Reported Minimum Toxicity Concentration HEK 293: 0.1

Record O=C1C(=O)c2cccnc2-c2ncccc21 . Reported Minimum Toxicity Concentration HEK 293: 0.1

Record Cc1ccnc2c1ccc1c(C)ccnc12 . Reported Minimum Toxicity Concentration HEK 293: 0.1

Record c1ccc(-c2ccnc3c2ccc2c(-c4ccccc4)ccnc23)cc1 . Reported Minimum Toxicity Concentration HEK 293: 25

----------
System: Human alveolar epithelial cells (A549)
Assay: Resazurin cytotoxicity assay, A549
Details: human, 4 days
READOUT_NAME: Minimum Toxicity Concentration A549 (µM)
Record the value in µM, omitting the unit from your answer.

Solved entries:
SMILES_TEXT | Minimum Toxicity Concentration A549 / µM
O=[N+]([O-])c1cc2cccnc2c2ncccc12 | 12
c1ccc(-c2ccnc3c2ccc2c(-c4ccccc4)ccnc23)cc1 | 3

Human alveolar epithelial cells (A549) Minimum Toxicity Concentration A549 of Cc1ccnc2c1ccc1c(C)ccnc12 is 0.1

----------
System: Human alveolar epithelial cells (A549)
Assay: Resazurin cytotoxicity assay, A549
Conditions: commercial compounds; unit from Table 8 head
Procedure: To identify marine samples with activity against MRSA, 1434 compounds from the AIMS Bioresources Library (provided by the Queensland Compound Library, Brisbane, Australia, now called Compounds Australia) were screened in a resazurin cell viability assay. Toxicity of AIMS Extract Library. […] Then, resazurin (10 μL of 0.05% w/v) was added and after 4 h, fluorescence measured as described previously. The cell viability was calculated as percentage fluorescence relative to untreated cells.
READOUT_NAME: Minimum Toxicity Concentration A549

Solved entries:
COMPOUND | Minimum Toxicity Concentration A549
c1cnc2ccc3ncccc3c2c1 | >100 µM
CCCCN(CCCC)CCCC | >100 µM
c1cnc2c(c1)ccc1ncccc12 | >100 µM

Record c1ccc(-c2ccccn2)nc1 . Reported Minimum Toxicity Concentration A549: >100 µM

Record CCCCCCN(CCCCCC)CCCCCC . Reported Minimum Toxicity Concentration A549: >100 µM

Record Cc1c(C)c2cccnc2c2ncccc12 . Reported Minimum Toxicity Concentration A549: 0.1 µM

Record CCCCCCCCN(CCCCCCCC)CCCCCCCC . Reported Minimum Toxicity Concentration A549: 50 µM

Record Cc1cnc2c(ccc3c(C)c(C)cnc32)c1C . Reported Minimum Toxicity Concentration A549: 0.1 µM

Record c1ccc(CN(Cc2ccccc2)Cc2ccccc2)cc1 . Reported Minimum Toxicity Concentration A549: >100 µM

Record CCCCCCCCNCCCCCCCC . Reported Minimum Toxicity Concentration A549: >100 µM

Record Cc1ccc2ccc3ccc(C)nc3c2n1 [Neocuproine hemihydrate] . Reported Minimum Toxicity Concentration A549: 6.2 µM

Record c1cnc2c(c1)ccc1cccnc12 . Reported Minimum Toxicity Concentration A549: 3 µM

Record CCCCCCN . Reported Minimum Toxicity Concentration A549: >100 µM

Record C1CCC(NC2CCCCC2)CC1 . Reported Minimum Toxicity Concentration A549: >100 µM
